Hello, the source for this data is the domain aggregation screens of Martell et al. (2025), in case you need it.

test: soluble fraction after stress (log2 fold change); higher = more stays soluble; pooled small domains, quantitative proteomics; settings: stress: 50 degC
1.0 means recorded soluble fraction (log2) is -0.4 or above; 0.0 means it is below -0.4.

[[record]]
primary_sequence = "HMEEPEELYRVKILIYNLLVRNGPGILYTRLRRADYPGEYGIYEEKNGYGKISATLSEWISLNTEYVQRLD"
label = 0.0

[[record]]
primary_sequence = "HMQPTVEGLMKALETMTFNERTALALHYGLTGRQPMTFMAIGRYLGISDGRAEALVNSAIRKLR"
label = 0.0

[[record]]
primary_sequence = "HMGNWEQQLRSWADGELATGKQDILTTAVPAFERALIETALSHTNGRKRDAAELLGWGRNTLTRKLKELGM"
label = 1.0

[[record]]
primary_sequence = "HMKELVAGQTVRVHHSIGFGQTGTVTALNSLKTTLPNGLRTNTASILFQNNEKVVLPISNFDIIES"
label = 1.0

[[record]]
primary_sequence = "HMSVLLDDLSPREREILQLVVEGHSSTKIAGMLGLASATVDTYRSRLMAKLHIDNLPDLVRFAIRHGLIS"
label = 0.0

[[record]]
primary_sequence = "HMKTRIQDLRKELGVTQSELADAVDVTRQTIISLEGGRYKASLVLAHKLAQFFHVTIEELFIFD"
label = 0.0

[[record]]
primary_sequence = "HMKMPNGYGSVYKLSGNRRKPWAARVTDGWVNDTKTKKSKQKYKFIGFYETRKEALLALADYNANP"
label = 0.0

[[record]]
primary_sequence = "HMSAGKKSFTNSEFRRFLDALGEGLIVKHKKLGEGVVVEIRGDKAVIQFGDEQRLYELKTLYEYDLLR"
label = 1.0

[[record]]
primary_sequence = "HMKLSKLTKPELDEIFRNANFTEEEEKVFWLLARGKSLEQISAKTFLPIATVNRRVKSIKDKIG"
label = 1.0

[[record]]
primary_sequence = "HMGSRAEAKEFLQTMLADGRQLATDMEEARQAHDIADRTLRRARKELNVQVYRDGNAWYWELPTPIK"
label = 1.0

[[record]]
primary_sequence = "HMENIIFDIGFHKGEDTLFYLLKGYRVIAVDADPDLINEWQNIFKKYIENGKLLLLNYVISDT"
label = 0.0

[[record]]
primary_sequence = "HMNVPFGYTIKDGLLVEQPDEKAILDNILTWKKGQMTVAEIAKKTGMETWKIYGILNYWRNK"
label = 0.0

[[record]]
primary_sequence = "HMSNNLAYSQFLDRVKNKEIRKVEIRGQSIVGYTSNNETFKTYAPLNDPKMYDELLTNDVQVQVDPP"
label = 1.0

[[record]]
primary_sequence = "HMNEYIVSAEQEGMRLDVFLTEQMEGSRSYIQSLIKGGHVTVGDKVGKANLRLTPDTVIHVEIPEPE"
label = 1.0

[[record]]
primary_sequence = "HMTEKIVFNIDGQTGRIDKILADFMTGTSRSQIQAWVKDGNLMVNDKAVKSNYKVQDGDLLELTIPEPEQ"
label = 1.0

[[record]]
primary_sequence = "HMVAPPILNITTHIFAEEADLRMVMINGVTRREGDSLGENHRLLEITERGLILIFHNKQYTLDV"
label = 0.0

[[record]]
primary_sequence = "HMKPRVTVVTLGVDDLERAVRFYAEGLGFPTEGIVGREFEFGAVAFFDMQPGLRLALWPRRSLAHDSGLP"
label = 1.0

[[record]]
primary_sequence = "HMLEDIDNSIKKEIILEHYDKMLEFHGDYGAIIFRKLLHAYSKGYTGANEFRDLVNQISDKNIMRDLIESF"
label = 0.0

[[record]]
primary_sequence = "HMFTFEDMDKFESLLTTGLTDVQRRIYSLVTHDGKEYDLIAETLGISVEAVRMHMSRARKKIRENYKKID"
label = 0.0

[[record]]
primary_sequence = "HMTQQYVEWKVYNVTTIKNKYGFRVKLIFQDGSDATQQKGGFTSKKAAEQARTEVIGQLYSNTYVVY"
label = 0.0

[[record]]
primary_sequence = "HMRGGKGTVPDVTGMDAAAAVRILEKAGMNVAYIRGAGFVAEQTPAAGTKLKKGDKAYITLSWK"
label = 1.0

[[record]]
primary_sequence = "HMFLSQQDINRANAASVTDMGDIIRRTFERNAAEINGLELSDAEKKDAVKQMATLATTALKTAAGAVNPY"
label = 1.0

[[record]]
primary_sequence = "HMRVQELARDLGVEADTLIALLRQMGIPVTGARSAINDAQQAKVLAKIERERRAGHSDPAKAIQAVLEEAS"
label = 1.0

[[record]]
primary_sequence = "HMSWAAQVVDKMTNDQLIKSLNEIVNTGKQLGLDITVEQNGDKNFIMTVKDSKGNVQLVTPIG"
label = 1.0

[[record]]
primary_sequence = "HMNAYEVLIPNIYIGQRVDQTLASLFPQFSRSRLQNWLARGNLLIDGEIIKPKTKVLGGEQIIILDT"
label = 0.0

[[record]]
primary_sequence = "HMSLANTSVKEMLNDLVKNEEPSKPLSDEALVKIFKEKGVKIARRTVAKYRAELNILPSHLRRT"
label = 0.0

[[record]]
primary_sequence = "HMEDLDKIISAYLDENPQIVSDYGKGNKKAVNSAIGFVMKSTGGKYSSSDIVDAVRSMIVSISV"
label = 0.0

[[record]]
primary_sequence = "HMVDFHAAYSILRIAPGASWQEIQAAYEKLNDAWREDRYPQVPFWNEKAAFKRREVEQAYEKLRKFHALRH"
label = 0.0

[[record]]
primary_sequence = "HMDYTGIPQSLLDLMKKDNIMPMQIQRAVAERNYYPVDTPISNYDPMFIEAKLVGAWDQVLNVISHLDLP"
label = 0.0

[[record]]
primary_sequence = "HMIVNEQEQTFIKAMRDDDFNTILELKMKGYQPSDNVLKSLQPDISSTTFIAAAKIFQMERMLK"
label = 1.0

[[record]]
primary_sequence = "HMTRQEFIRKLQEALNGKLDAATIQDHLKFYDDYIIEEMRKGKSEQEVLELLGDPWAIAKTIVDAS"
label = 1.0

[[record]]
primary_sequence = "HMRSEILNLLREKSPQPVSGQDLANHFGITRTAVWKHIQSLKKMGYGIEAYTKKGYVLVSVPN"
label = 1.0

